Molecular target: Integrin alpha-V/beta-3 (Homo sapiens)
Experiment: Inhibition of HUVEC adhesion to vitronectin-coated plates
pIC50: −log10 of the molar value.
recorded_endpoint: pIC50

CCN(CC(=O)N[C@@H](CC(=O)O)C(=O)N[C@@H](CC1CCCCC1)C(=O)O)C(=O)CCCC1CCNCC1 < 2.78

====

Molecular target: Integrin alpha-V/beta-3 (Homo sapiens)
Test: Inhibition of HUVEC adhesion to vitronectin-coated plates
Settings: huvec
pIC50: −log10 of the molar value.
recorded_endpoint: pIC50

CCN(CC(=O)N[C@@H](CC(=O)O)C(=O)N[C@@H](CCC1CCCCC1)C(=O)O)C(=O)CCCC1CCNCC1 < 2.60

====

Molecular target: Integrin alpha-V/beta-3 (Homo sapiens)
Experiment: Inhibition of HUVEC adhesion to fibrinogen-coated plates
Conditions: huvec
pIC50: −log10 of the molar value.
recorded_endpoint: pIC50

CCN(CC(=O)N[C@@H](CC(=O)O)C(=O)N[C@@H](CCC1CCCCC1)C(=O)O)C(=O)CCCC1CCNCC1 2.71

====

Biological target: Integrin alpha-IIb/beta-3 (Homo sapiens, UniProt P05106+P08514)
Sequence (P05106 27-788 limits assumed): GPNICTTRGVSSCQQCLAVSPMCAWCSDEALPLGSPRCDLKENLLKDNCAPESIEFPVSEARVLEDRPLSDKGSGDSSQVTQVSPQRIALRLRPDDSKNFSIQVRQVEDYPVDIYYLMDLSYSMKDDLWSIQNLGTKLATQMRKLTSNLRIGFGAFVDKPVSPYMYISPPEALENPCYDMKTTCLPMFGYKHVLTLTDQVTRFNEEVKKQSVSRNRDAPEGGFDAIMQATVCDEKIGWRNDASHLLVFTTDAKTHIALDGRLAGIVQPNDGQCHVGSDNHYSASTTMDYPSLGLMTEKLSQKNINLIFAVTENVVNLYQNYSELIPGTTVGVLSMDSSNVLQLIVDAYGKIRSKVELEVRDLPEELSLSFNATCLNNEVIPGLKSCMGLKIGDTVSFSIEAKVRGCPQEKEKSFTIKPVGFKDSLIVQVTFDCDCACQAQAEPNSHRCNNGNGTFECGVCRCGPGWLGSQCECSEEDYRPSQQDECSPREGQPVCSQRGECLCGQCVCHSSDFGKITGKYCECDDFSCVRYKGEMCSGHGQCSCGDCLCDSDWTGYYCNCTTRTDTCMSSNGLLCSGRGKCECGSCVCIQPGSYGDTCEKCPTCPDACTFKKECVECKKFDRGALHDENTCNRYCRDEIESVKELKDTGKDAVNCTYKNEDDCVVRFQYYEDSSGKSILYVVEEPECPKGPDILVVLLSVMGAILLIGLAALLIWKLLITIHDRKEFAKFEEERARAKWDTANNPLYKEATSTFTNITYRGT
Sequence (P08514 32-887 limits assumed): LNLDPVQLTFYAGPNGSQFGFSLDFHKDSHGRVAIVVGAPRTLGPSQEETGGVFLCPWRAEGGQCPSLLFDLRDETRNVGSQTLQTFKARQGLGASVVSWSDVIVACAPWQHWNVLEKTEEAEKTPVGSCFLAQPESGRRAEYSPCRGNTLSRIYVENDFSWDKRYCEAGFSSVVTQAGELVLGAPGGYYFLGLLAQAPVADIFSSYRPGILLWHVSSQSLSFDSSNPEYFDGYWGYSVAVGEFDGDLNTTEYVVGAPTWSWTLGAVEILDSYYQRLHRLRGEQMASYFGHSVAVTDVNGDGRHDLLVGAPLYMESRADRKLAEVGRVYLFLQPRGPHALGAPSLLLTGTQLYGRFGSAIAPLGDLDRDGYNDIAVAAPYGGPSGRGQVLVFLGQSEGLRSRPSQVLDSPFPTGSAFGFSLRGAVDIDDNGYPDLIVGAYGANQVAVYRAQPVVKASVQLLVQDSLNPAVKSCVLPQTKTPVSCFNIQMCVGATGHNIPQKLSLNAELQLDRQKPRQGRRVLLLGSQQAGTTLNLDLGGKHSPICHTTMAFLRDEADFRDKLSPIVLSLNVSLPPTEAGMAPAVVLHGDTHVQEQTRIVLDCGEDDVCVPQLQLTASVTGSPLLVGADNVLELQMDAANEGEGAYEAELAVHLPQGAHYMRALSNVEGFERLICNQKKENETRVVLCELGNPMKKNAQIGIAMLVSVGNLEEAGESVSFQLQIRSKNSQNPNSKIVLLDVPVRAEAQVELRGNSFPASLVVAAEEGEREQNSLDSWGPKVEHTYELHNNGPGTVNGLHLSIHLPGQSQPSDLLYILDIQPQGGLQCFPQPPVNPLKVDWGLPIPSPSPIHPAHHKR
Sequence (P08514 891-1039 limits assumed): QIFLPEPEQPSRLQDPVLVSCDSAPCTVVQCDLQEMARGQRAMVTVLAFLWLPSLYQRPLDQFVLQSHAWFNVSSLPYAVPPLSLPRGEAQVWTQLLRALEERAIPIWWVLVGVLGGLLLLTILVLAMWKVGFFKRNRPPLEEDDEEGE
Experiment: Ability to inhibit the aggregation of fixed human platelets
Format: functional
Residues, ends and D or L forms follow the SMILES beside them.
Dear colleague, classification is by IC50, with ranges listed here: bottom: < 60 nM; middle: ≥ 60 nM and < 100 nM; top: ≥ 100 nM

compound	subject_of_test	label_value
CCCC[C@H](NC(=O)[C@H](CC(=O)O)NC(=O)CN(CC)C(=O)CCCC1CCNCC1)C(=O)O	Integrin alpha-IIb/beta-3 (Homo sapiens, UniProt P05106+P08514)	top
CCN(CC(=O)N[C@@H](CC(=O)O)C(=O)N[C@H](C(=O)O)C(C)C)C(=O)CCC1CCNCC1	Integrin alpha-IIb/beta-3 (Homo sapiens, UniProt P05106+P08514)	top
CCN(CC(=O)N[C@@H](CC(=O)O)C(=O)NCCC1CCCCC1)C(=O)CCCC1CCNCC1	Integrin alpha-IIb/beta-3 (Homo sapiens, UniProt P05106+P08514)	middle
CCN(CC(=O)N[C@@H](CC(=O)O)C(=O)N[C@@H](CC1CCCCCCC1)C(=O)O)C(=O)CCCC1CCNCC1	Integrin alpha-IIb/beta-3 (Homo sapiens, UniProt P05106+P08514)	middle
CCN(CC(=O)N[C@@H](CC(=O)O)C(=O)N[C@H](C(=O)O)C(C)C)C(=O)CCCCCNC(=N)N	Integrin alpha-IIb/beta-3 (Homo sapiens, UniProt P05106+P08514)	top
CCN(CC(=O)N[C@@H](CC(=O)O)C(=O)N[C@@H](CC1CCCCC1)C(=O)O)C(=O)CCCC1CCNCC1	Integrin alpha-IIb/beta-3 (Homo sapiens, UniProt P05106+P08514)	bottom
CC(C)[C@H](NC(=O)[C@H](CC(=O)O)NC(=O)CNC(=O)CCCC1CCNCC1)C(=O)O	Integrin alpha-IIb/beta-3 (Homo sapiens, UniProt P05106+P08514)	top
CCN(CC(=O)N[C@@H](CC(=O)O)C(=O)N[C@H](C(=O)O)C1CCCCC1)C(=O)CCCC1CCNCC1	Integrin alpha-IIb/beta-3 (Homo sapiens, UniProt P05106+P08514)	bottom
CC(C)[C@H](NC(=O)[C@H](CC(=O)O)NC(=O)CNC(=O)[C@@H](N)CCCNC(=N)N)C(=O)O (H-RGDV-OH)	Integrin alpha-IIb/beta-3 (Homo sapiens, UniProt P05106+P08514)	top
CCN(CC(=O)N[C@@H](CC(=O)O)C(=O)N[C@H](C(=O)O)C(C)C)C(=O)CCCC1CCNCC1	Integrin alpha-IIb/beta-3 (Homo sapiens, UniProt P05106+P08514)	bottom
CCN(CC(=O)N[C@@H](CC(=O)O)C(=O)N[C@H](C(=O)O)C(C)C)C(=O)CCCCC1CCNCC1	Integrin alpha-IIb/beta-3 (Homo sapiens, UniProt P05106+P08514)	top
CCN(CC(=O)N[C@@H](CC(=O)O)C(=O)N[C@@H](Cc1ccccc1)C(=O)O)C(=O)CCCC1CCNCC1	Integrin alpha-IIb/beta-3 (Homo sapiens, UniProt P05106+P08514)	middle
CCN(CC(=O)N[C@@H](CC(=O)O)C(=O)N[C@@H](CC1CCCCCC1)C(=O)O)C(=O)CCCC1CCNCC1	Integrin alpha-IIb/beta-3 (Homo sapiens, UniProt P05106+P08514)	bottom
CCN(CC(=O)N[C@@H](CC(=O)O)C(=O)N[C@H](CC1CCCCC1)C(=O)O)C(=O)CCCC1CCNCC1	Integrin alpha-IIb/beta-3 (Homo sapiens, UniProt P05106+P08514)	top
CCN(CC(=O)N[C@@H](CC(=O)O)C(=O)N[C@@H](CC1CCC2CCCCC2C1)C(=O)O)C(=O)CCCC1CCNCC1 (stereo not given in full)	Integrin alpha-IIb/beta-3 (Homo sapiens, UniProt P05106+P08514)	middle
CCN(CC(=O)N[C@@H](CC(=O)O)C(=O)N[C@@H](CCCC1CCCCC1)C(=O)O)C(=O)CCCC1CCNCC1	Integrin alpha-IIb/beta-3 (Homo sapiens, UniProt P05106+P08514)	bottom
CCOC(=O)[C@H](CC1CCCCC1)NC(=O)[C@H](CC(=O)O)NC(=O)CN(CC)C(=O)CCCC1CCNCC1	Integrin alpha-IIb/beta-3 (Homo sapiens, UniProt P05106+P08514)	middle
CCN(CC(=O)N[C@@H](CC(=O)O)C(=O)N[C@@H](CO)CC1CCCCC1)C(=O)CCCC1CCNCC1	Integrin alpha-IIb/beta-3 (Homo sapiens, UniProt P05106+P08514)	top
CCN(CC(=O)N[C@@H](CC(=O)O)C(=O)N[C@@H](Cc1cccc2ccccc12)C(=O)O)C(=O)CCCC1CCNCC1	Integrin alpha-IIb/beta-3 (Homo sapiens, UniProt P05106+P08514)	top
CCN(CC(=O)N[C@@H](CC(=O)O)C(=O)N[C@@H](C(=O)O)C(C)C)C(=O)CCCC1CCNCC1	Integrin alpha-IIb/beta-3 (Homo sapiens, UniProt P05106+P08514)	top
CCN(CC(=O)N[C@@H](CC(=O)O)C(=O)N[C@@H](CC(C)(C)C)C(=O)O)C(=O)CCCC1CCNCC1	Integrin alpha-IIb/beta-3 (Homo sapiens, UniProt P05106+P08514)	middle
CCN(CC(=O)N[C@@H](CC(=O)O)C(=O)N[C@@H](CC1CCCC1)C(=O)O)C(=O)CCCC1CCNCC1	Integrin alpha-IIb/beta-3 (Homo sapiens, UniProt P05106+P08514)	bottom
CCN(CC(=O)N[C@@H](CC(=O)O)C(=O)N[C@@H](CC1CCCC2CCCCC21)C(=O)O)C(=O)CCCC1CCNCC1 (stereo not given in full)	Integrin alpha-IIb/beta-3 (Homo sapiens, UniProt P05106+P08514)	bottom
CCN(CC(=O)N[C@@H](CC(=O)O)C(=O)N[C@@H](CCC1CCCCC1)C(=O)O)C(=O)CCCC1CCNCC1	Integrin alpha-IIb/beta-3 (Homo sapiens, UniProt P05106+P08514)	bottom
